Exercise: for every item that follows, state its recorded pIC50.
- study system: first bromodomain (BrD1) of human BRD4 (Homo sapiens)
- Construct: the first bromodomain (BrD1) of human BRD4; poly-His (cleaved yes)
- measurement description: Fluorescence anisotropy binding assay (competition with FITC-labeled MS417 probe)
- stated conditions: FITC-MS417 probe 80 nM, PBS pH 7.4, 1 hour, 25° C., read-out: BRD4_1 IC50
- Procedure: Fluorescence Anisotropy Binding Assay […] Binding affinity of the newly synthesized compounds to the BRD4 BrD1 was assessed in a fluorescence anisotropy assay using a fluorescein isothiocyanate (FITC)-labeled MS417 as an assay probe (Zhang et al. 2008 op.cit.). […] Measurements were obtained after 1 hour incubation of the fluorescent ligand and the protein at 25° C. with Safire 2 microplate reader (Tecan). […]
pIC50: −log10 of the molar value.

Query: pIC50; subject: CC1=C(Nc2ccc(NCCc3ccccc3C)cc2Cl)CCCC1=O 5.00 to 6.00

Quick one: pIC50 of CC1=C(N[C@H]2CC[C@@H](C(=O)O)CC2)CCC1=O ? < 5.00

Can you look up the measured pIC50 of CC1=C(Nc2ccc(C(=O)O)c(C)c2)CCC1=O for me? < 5.00

Reported pIC50, compound COc1ccc(NC(=O)c2ccc(NC3=C(C)C(=O)CC3)cc2)cc1 : ____ 5.00 to 6.00

Endpoint output: pIC50 of CNC(=O)c1ccc(NC2=C(C)C(=O)CC2)c(OC)c1 . Value? 5.00 to 6.00

Requested read-out: pIC50. Entry: CC1=C(Nc2cc(NS(C)(=O)=O)ccc2Cl)CCC1=O 5.00 to 6.00

Return reported pIC50; argument: CC1=C(Nc2cc(C(=O)Nc3ccccc3C)c3ccccc3c2)CCCC1=O > 6.00

Which pIC50 is reported for this compound? CC1=C(Nc2cccc(NC(=O)c3ccccc3C)c2Cl)CCC1=O > 6.00

Quick check: pIC50 of CC1=C(Nc2ccc(S(N)(=O)=O)cc2)CCC1=O ? < 5.00

What value of pIC50 has been reported for the following compound? CC1=C(Nc2ccc(C(=O)Nc3ccccc3C)cc2Cl)CCCC1=O > 6.00

If you can, please state the reported pIC50 value of CC1=C(Nc2cccc(Cl)c2C(=O)O)CCC1=O . < 5.00

Entry under review: CC1=C(Nc2ccccn2)CCC1=O . Reported pIC50? < 5.00

Tell me the measured pIC50 of CC1=C(Nc2cc(NS(=O)(=O)c3ccccc3C#N)ccc2Cl)CCC1=O , please. > 6.00

Which pIC50 value is on record for CC1=C(Nc2ccc(C(=O)NC3CCCCC3)cc2)CCC1=O ? 5.00 to 6.00

What does the record list as pIC50 for COc1ccc(C(=O)Nc2ccc(Cl)c(NC3=C(C)C(=O)CCC3)c2)cc1 ? < 5.00

Entry CC1=C(Nc2cccc(C(=O)Nc3ccncc3)c2)CCC1=O has what pIC50? 5.00 to 6.00

Which pIC50 reading was recorded for the compound CC1=C(Nc2cccc(NC(=O)C3CCCCC3)c2Cl)CCCC1=O ? 5.00 to 6.00

Record request: pIC50 value, item CC1=C(Nc2ccc(NC(=O)c3ccccc3C)cc2Cl)CCCC1=O > 6.00

Entry COc1cc(NC2=C(C)C(=O)CC2)ccc1C(=O)Nc1cccc2ccccc12 : reported pIC50 = ? > 6.00

Consider the compound CC1=C(Nc2ccc(C(=O)NCc3ccccc3)cc2)CCC1=O and give its measured pIC50. 5.00 to 6.00

Can you look up the measured pIC50 of CC1=C(Nc2cc(NCc3cccc(F)c3C)ccc2Cl)CCCC1=O for me? > 6.00

pIC50 for COc1cccc(NC(=O)c2ccc(NC3=C(C)C(=O)CC3)c(Cl)c2)c1 ? > 6.00

----------
What pIC50 was measured for each of the following?
- study system: BRD4_2 (Homo sapiens, UniProt O60885)
- Construct: contains two tandem bromodomains (BrD1 and BrD2)
- measurement description: Fluorescence anisotropy binding assay (competition with FITC-labeled MS417 probe), BRD4_2
- stated conditions: FITC-MS417 probe 80 nM, PBS pH 7.4, 1 hour, 25° C.
pIC50: −log10 of the molar value.

If you can, please state the reported pIC50 value of CC1=C(Nc2cc(NS(=O)(=O)N3CCOCC3)ccc2Cl)CCC1=O . 5.00 to 6.00

Consider the compound CC1=C(Nc2ccc(N)cc2Cl)CCCC1=O and give its measured pIC50. 5.00 to 6.00

Tell me the measured pIC50 of CC1=C(Nc2ccc(NS(=O)(=O)C3CCCCC3)cc2Cl)CCC1=O , please. 5.00 to 6.00

Given the entry CC1=C(Nc2ccc3ncccc3c2)CCCC1=O , report its measured pIC50. 5.00 to 6.00

Sample CC1=C(Nc2ccc(NC(=O)c3ccccc3C)cc2Cl)CCCC1=O — what was its pIC50? 5.00 to 6.00

Can you look up the measured pIC50 of CC1=C(Nc2cccc(CC(=O)O)c2)CCCC1=O for me? < 5.00

Returns the measured pIC50 for the input compound. Input: CC1=C(Nc2ccc(N)cc2Cl)CCC1=O 5.00 to 6.00

For the compound CC1=C(Nc2ccc(S(N)(=O)=O)cc2)CCC1=O , what pIC50 is on record? < 5.00

// returns reported pIC50 for input CC1=C(Nc2ncccc2Cl)CCCC1=O < 5.00

Give its pIC50 value. Item: CC1=C(Nc2cc(C(=O)O)ccc2Cl)CCCC1=O < 5.00

Record request: pIC50 value, item CC1=C(Nc2ccc(C(=O)O)c(C)c2)CCC1=O < 5.00

Which pIC50 value is on record for CC1=C(Nc2ccc(C(=O)Nc3ccc(C)cc3)cc2C)CCC1=O ? 5.00 to 6.00

If you can, please state the reported pIC50 value of CC1=C(Nc2ccc(S(=O)(=O)Nc3ccccn3)cc2)CCC1=O . 5.00 to 6.00

Find the recorded pIC50 belonging to COc1ccccc1NC(=O)c1ccc(NC2=C(C)C(=O)CC2)cc1 and report it. 5.00 to 6.00

Tell me the measured pIC50 of CC1=C(Nc2cc(C(=O)Nc3ccccc3C)ccc2Cl)CCCC1=O , please. 5.00 to 6.00

# get_value(readout='pIC50', item= COc1ccc(NC(=O)Cc2cccc(NC3=C(C)C(=O)CCC3)c2)cc1 ) < 5.00

Value lookup for pIC50; key = CC1=C(Nc2ccc(C(=O)Nc3ccccc3)cc2Cl)CCC1=O 5.00 to 6.00

GET /values?readout=pIC50&item= CC1=C(Nc2cc(C(=O)Nc3ccc(C(=O)O)cc3C)ccc2Cl)CCCC1=O < 5.00

Find the recorded pIC50 belonging to CC1=C(Nc2cc(NCc3cccc(F)c3C)ccc2Cl)CCCC1=O and report it. 5.00 to 6.00

Need pIC50 of CC1=C(N[C@H]2CC[C@H](C(=O)Nc3ccccc3)CC2)CCC1=O , thanks. < 5.00

----------
Would you mind telling me the reported melting point of each entry?

Any idea what melting point was measured for CC1=C(Nc2cnc3ccccc3c2)CCCC1=O [Example 01-59] ? 172 to 175 °C

Dear colleague, I am looking for the recorded melting point of the following compound: CC1=C(Nc2ccc(NC(=O)/C=C\C(=O)O)cc2Cl)CCCC1=O [Example 05-84] 200 to 202 °C

Look up melting point: CC1=C(Nc2ccc(CC(=O)O)cc2)CCCC1=O [Example 01-38] 215 to 219 °C

Tell me the measured melting point of CC1=C(Nc2cccc(N)c2Cl)CCC1=O [Example 02-13] , please. 223 to 225 °C

Any idea what melting point was measured for CC1=C(Nc2cc(NC(=O)c3ccccc3C)ccc2Cl)CCC1=O [Example 05-38] ? 230 to 232 °C

----------
- study system: first bromodomain (BrD1) of human BRD4 (Homo sapiens, UniProt O60885)
- Construct: the first bromodomain (BrD1) of human BRD4; poly-His (cleaved yes)
- measurement description: Fluorescence anisotropy binding assay (competition with FITC-labeled MS417 probe)
- stated conditions: FITC-MS417 probe 80 nM, PBS pH 7.4, 1 hour, 25° C., read-out: BRD4_1 IC50
readout name: IC50

Find the recorded IC50 belonging to CC1=C(Nc2cc(NC(=O)/C=C\C(=O)O)ccc2Cl)CCCC1=O [Example 05-83] and report it. 1 to 10 µM

Which value of IC50 has been reported for CC1=C(Nc2cccc(NCCc3ccccc3C)c2Cl)CCCC1=O [Example 05-79] in the records? 1 to 10 µM

Item COc1cc(C(=O)Nc2ccccc2)ccc1NC1=C(C)C(=O)CC1 [Example 04-56] has what recorded IC50? 1 to 10 µM

I would be grateful if you could share the reported IC50 for CC1=C(Nc2ccc(C(=O)Nc3ccccc3)c(Cl)c2)CCC1=O [Example 04-45] . > 10 µM

Item CC1=C(Nc2ccc(-c3cn(Cc4ccccc4)nn3)cc2)CCC1=O [Example 06-28] has what recorded IC50? < 1 µM
